# measurement.protocol: budding yeast growth modifiers under rapamycin – strain BY4716, OD600, 96 h, primary screen (AID 1091); note: test concentration not given here
# cond: S. cerevisiae BY4716 + rapamycin, higher = more signal, called active from +8 up or from −8 down
Measured z-score by item

molecule | z-score
COC(=O)[C@@]1(Cc2ccccc2)[C@H]2c3cc(C(=O)N4CCCC4)n(Cc4c(CO)[nH]cc(C)c4=O)c3C[C@H]2CN1C(=O)c1ccccc1 | 0.171
O=C(NCCN1CCOCC1)[C@@H]1c2ccccc2C(=O)N(Cc2cc(C(F)(F)F)cc(C(F)(F)F)c2)[C@H]1c1ccc(CO)cc1 | 0.0371
C=C(C(=O)CC[C@H](OC(C)=O)c1ccccc1OCCO)C(C)C | -4.35
CN1C(=O)C2C=CC(C(O)c3c(F)cccc3Cl)N(NC(=O)OC(C)(C)C)C2C1=O (centres undefined) | 0.635
CS(=O)(=O)CCOC(=O)C1=CC(CCCO)=CC(C2CC2)N(Cc2cc3c(cc2Br)OCO3)C=C1C(=O)OCCS(C)(=O)=O (centres undefined) | -1.32
COc1ccc(NC(=O)O[C@H]2[C@H](OC(=O)c3cc4ccccc4[nH]3)[C@@H](OC(=O)c3cc4ccccc4[nH]3)[C@@H](OC)O[C@@H]2CO)cc1 | 0.611
C=C[C@H](C)[C@@H](OC(=O)Nc1ccc(SC)cc1)c1ccc(O)c2ccccc12 | -1.88
COC(=O)[C@@]1(CCC(=O)OC(C)(C)C)N=C(c2ccc(OCCCO)cc2)O[C@H]1c1ccccc1 | 3.15
COC(=O)[C@@]1(Cc2ccc(OC)cc2)[C@H]2c3cc(C(=O)N4CCCC4)n(CCc4ccc(O)c(O)c4)c3C[C@H]2CN1C(=O)c1ccccc1 | 0.751
O=C(NC1CC1)[C@@H]1c2ccccc2C(=O)N(Cc2cc(F)cc(C(F)(F)F)c2)[C@H]1c1ccc(CO)cc1 | -0.926
CCOC(=O)C[C@H]1[C@H](OC(=O)c2ccc(-c3ccccc3)cc2)[C@@H](NC(=O)c2ccccc2)c2cc(OCCCO)ccc2N1C(=O)Cc1ccc(OC)cc1 | 1.45
COC(=O)C(CC#Cc1ccc2c(c1)[C@]1(C(=O)N2)[C@H](c2ccccc2OCCO)N2[C@H](c3ccccc3)[C@H](c3ccccc3)OC(=O)[C@H]2[C@@H]1C(=O)O)C(=O)OC | -0.188
CC(C)[C@@H](C(=O)O)n1cc(C2(O)CCCCC2)nn1 | -1.12
CCCCN1CC=CC23O[C@@H]4/C=C\CCCOC(=O)C4[C@H]2C(=O)N(CCCO)[C@@H]3C1=O (some centres undefined) | -0.513
CC(C)(C)OC(=O)CC[C@]1(C(=O)NCCN2CCOCC2)COC(c2ccc(OCCCO)cc2)=N1 | -0.342
COC(=O)[C@@]1(Cc2ccc(F)cc2)[C@H]2c3cc(C(=O)N(C)C)n(Cc4cc(C)n(C)n4)c3C[C@H]2CN1C(=O)c1ccccc1 | -0.109
[N-]=[N+]=Nc1ccccc1[C@H]1OC(c2ccc(OCCCO)cc2)=N[C@@]1(CCS(=O)(=O)c1ccccc1)C(=O)NCc1ccccc1 | 2.23
C=CC[C@@]1(C(=O)N2CCCCC2)N=C(c2ccc(OCCCO)cc2)O[C@@H]1c1ccccc1CN=[N+]=[N-] | 0.819
C=CCNC(=O)[C@H]1[C@@H]2C(=O)O[C@@H](c3ccccc3)[C@@H](c3ccccc3)N2[C@@H](c2ccc(OCCO)cc2)[C@]12C(=O)Nc1ccc(C#CCC(C(=O)OC)C(=O)OC)cc12 | 5.79
[N-]=[N+]=Nc1ccccc1C[C@@]1(C(=O)N2CCCCC2)N=C(c2ccc(OCCCO)cc2)O[C@@H]1c1ccccc1 | 0.737
CC(=O)NCCCC[C@@H]1NC(=O)[C@H]2C[C@@H](C(=O)NCCCCCNC(=O)CS)[C@@H](c3ccc(O)cc3)N2C1=O | 1.76
CC1CC/C=C\[C@H]2OC34C=CCN(Cc5ccccc5)C(=O)[C@H]3N(C(C)CO)C(=O)[C@@H]4C2C(=O)O1 (some centres undefined) | -0.577
COCCOC(=O)N1C(=O)[C@@]2(c3cc(C#Cc4ccc(OC)cc4)ccc31)[C@H](c1ccc(O)cc1)N1[C@H](c3ccccc3)[C@H](c3ccccc3)OC(=O)[C@H]1[C@@H]2C(=O)Nc1nc2ccccc2s1 | 0.684
CC(C)OC(=O)C=C1C[C@@H](c2cccc(Cl)c2)O[C@@H](c2cccc(Cl)c2)O1 | -0.764
CC(C)CNC(=O)[C@@]1(Cc2ccccc2I)c2ccccc2C(=O)N(Cc2ccccc2C(F)(F)F)[C@H]1c1ccc(CO)cc1 | -0.403
C=C(C)[C@@H]1CC=C(C(O)C2C=CC3C(=O)NC(=O)C3N2Nc2ccc(Cl)cc2Cl)CC1 (some centres undefined) | 3.45
[N-]=[N+]=Nc1ccccc1C[C@]1(C(=O)NCc2ccccc2)N=C(c2ccc(OCCCO)cc2)O[C@H]1c1ccccc1N=[N+]=[N-] | 4.87
CC1CC/C=C\[C@H]2OC34C=CCN(c5ccc6ccccc6c5)C(=O)[C@H]3N(CCO)C(=O)[C@@H]4C2C(=O)O1 (some centres undefined) | -0.764
CCCCN1CC=CC23O[C@@H]4C=CCCOC(=O)C4[C@H]2C(=O)N(CCCCCO)[C@@H]3C1=O (some centres undefined) | 0.025
